# IC50 per entry
- TEST_SYSTEM: recombinant USP30 (amino acids 57-517 of the human sequence) (Homo sapiens (Human), UniProt Q70CQ3)
- Sequence (Q70CQ3 57-517): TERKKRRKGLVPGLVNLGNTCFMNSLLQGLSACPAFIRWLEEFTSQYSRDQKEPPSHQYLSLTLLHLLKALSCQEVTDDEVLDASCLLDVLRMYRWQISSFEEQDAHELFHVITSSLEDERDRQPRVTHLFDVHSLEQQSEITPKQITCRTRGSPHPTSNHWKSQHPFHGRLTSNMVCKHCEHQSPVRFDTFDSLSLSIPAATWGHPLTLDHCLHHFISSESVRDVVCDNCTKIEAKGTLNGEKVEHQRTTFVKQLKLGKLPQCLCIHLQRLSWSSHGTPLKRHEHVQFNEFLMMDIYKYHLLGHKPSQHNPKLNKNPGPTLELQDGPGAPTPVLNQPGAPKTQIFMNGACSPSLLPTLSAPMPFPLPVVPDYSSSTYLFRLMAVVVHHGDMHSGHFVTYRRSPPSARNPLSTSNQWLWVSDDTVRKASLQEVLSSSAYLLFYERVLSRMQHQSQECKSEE
- EXPERIMENT_DESCRIPTION: In vitro USP30 biochemical assay (Ubiquitin-Rhodamine)
- MEASUREMENT_CONTEXT: USP30 IC50 μM (avg), Ubiquitin-Rhodamine substrate 25 nM, 1.5 nM recombinant USP30

Some entries whose results are on file:
MOLECULE	REPORTED
O=C(N[C@@H](Cc1ccccc1)C(=O)Nc1ccc(S(=O)(=O)NC2CCC2)cc1)c1ccccn1	1 to 10 µM
O=C(N[C@@H](Cc1ccccc1)C(=O)Nc1ccc(S(=O)(=O)NC2COC2)c(Cl)c1)c1ccc(F)cc1	0.05 to 1 µM
CCNS(=O)(=O)c1cccc2c(NC(=O)[C@H](Cc3ccccc3)NC(=O)c3ccc(F)cc3)cccc12	0.05 to 1 µM
O=C(N[C@@H](Cc1ccccc1)C(=O)Nc1ccc(S(=O)(=O)NCCCN2CCOCC2)cn1)c1ccc(F)cc1	0.05 to 1 µM
CC(C)(C)NS(=O)(=O)c1ccc(NC(=O)C2Cc3ccccc3CN2C(=O)c2ccc(F)cc2)cc1 (stereo not shown)	1 to 10 µM
COCC(C)(C)NS(=O)(=O)c1ccc(NC(=O)[C@H](Cc2ccccc2)NC(=O)c2ccc(F)cc2)cn1	0.05 to 1 µM

# ---- query molecule ----
## Task Which IC50 is listed for CC(C)(C)C[S+]([O-])c1ccc(NC(=O)[C@H](Cc2ccccc2)NC(=O)c2ccc(F)cc2)cc1 (stereo partly shown) ?
## Result 1 to 10 µM

* * *

- TEST_SYSTEM: USP30 (Homo sapiens (Human))
- Sequence (Q70CQ3 whole entry): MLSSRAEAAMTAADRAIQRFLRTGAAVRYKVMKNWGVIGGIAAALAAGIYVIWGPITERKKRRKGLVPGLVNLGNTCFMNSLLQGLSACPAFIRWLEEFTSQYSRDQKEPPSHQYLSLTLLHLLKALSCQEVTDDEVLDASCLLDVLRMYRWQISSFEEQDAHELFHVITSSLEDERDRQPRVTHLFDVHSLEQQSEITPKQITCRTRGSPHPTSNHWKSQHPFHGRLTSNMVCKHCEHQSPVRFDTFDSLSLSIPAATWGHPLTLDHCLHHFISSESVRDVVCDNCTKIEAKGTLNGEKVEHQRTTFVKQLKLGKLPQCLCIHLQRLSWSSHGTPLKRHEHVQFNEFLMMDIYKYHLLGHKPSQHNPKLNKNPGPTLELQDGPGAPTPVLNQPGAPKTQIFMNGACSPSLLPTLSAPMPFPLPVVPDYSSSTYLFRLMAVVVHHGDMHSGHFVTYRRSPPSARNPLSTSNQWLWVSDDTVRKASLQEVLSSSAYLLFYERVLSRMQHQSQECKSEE
- EXPERIMENT_DESCRIPTION: Dundee MALDI-TOF mass spectrometry assay (IC50)
- Assay type: biochemical
- MEASUREMENT_CONTEXT: USP30 25 ng/μl, K48-linked diubiquitin 5.6 μM, avg, read-out: Dundee IC50 μM (avg in vitro MS assay)
compounds and their reported IC50

Some compounds with known IC50 results, for comparison:
STRUCTURE_SMILES_STRING	IC50
O=C(N[C@@H](Cc1ccccc1)C(=O)Nc1ccc(S(=O)(=O)NCCCN2CCOCC2)cn1)c1ccc(F)cc1	0.05 to 1 µM
CC(C)(NS(=O)(=O)c1ccc(NC(=O)[C@H](Cc2ccccc2)NC(=O)c2ccc(F)cc2)cc1)C(F)(F)F	< 0.05 µM
CC[C@@H](C)NS(=O)(=O)c1ccc(NC(=O)[C@H](Cc2ccccc2)NC(=O)c2ccc(F)cc2)cc1	< 0.05 µM
O=C(N[C@@H](Cc1ccccc1)C(=O)Nc1ccc(S(=O)(=O)NC2COC2)cn1)c1ccc(F)cc1	0.05 to 1 µM
CCNS(=O)(=O)c1cccc2c(NC(=O)[C@H](Cc3ccccc3)NC(=O)C3CCCCC3)cccc12	< 0.05 µM

## Task Fill blank: measured IC50 of the compound "CC(C)(C)OCCNS(=O)(=O)c1ccc(NC(=O)[C@H](Cc2ccccc2)NC(=O)c2ccc(F)cc2)cc1" is ____.
## Result 0.05 to 1 µM

## Task Fill in the blank: the reported IC50 of "CC(C)(C)NS(=O)(=O)c1ccc(NC(=O)[C@H](Cc2ccccc2)NC(=O)c2ccc(F)cn2)cc1" is ____.
## Result 0.05 to 1 µM
